MEASURED ON: Neu5Ac(a2-3)Gal(b1-4)GlcNAc(b1-2)Man(a1-3)[Neu5Ac(a2-3)Gal(b1-4)GlcNAc(b1-2)Man(a1-6)]Man(b1-4)GlcNAc(b1-4)[Fuc(a1-6)]GlcNAc
ASSAY DETAILS: glycan array binding signal (z-score within array); higher = stronger binding
CONDITION NOTES: glycan notation: IUPAC condensed, linker removed
The entries come from a sample that favours the strongest signals as a whole.

| BINDER | glycan array binding signal (z-score) |
| --- | --- |
| Erv41-EDTA (Saccharomyces cerevisiae), Q04651 (protein) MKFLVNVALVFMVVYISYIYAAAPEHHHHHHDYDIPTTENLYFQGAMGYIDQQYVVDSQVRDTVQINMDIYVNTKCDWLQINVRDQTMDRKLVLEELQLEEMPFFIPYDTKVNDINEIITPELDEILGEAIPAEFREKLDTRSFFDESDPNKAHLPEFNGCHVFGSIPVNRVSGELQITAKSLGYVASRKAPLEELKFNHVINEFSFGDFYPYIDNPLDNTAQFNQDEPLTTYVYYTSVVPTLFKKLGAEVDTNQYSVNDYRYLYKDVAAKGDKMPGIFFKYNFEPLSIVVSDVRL | 2.09 |
| Agalectin (Anopheles gambiae) (protein) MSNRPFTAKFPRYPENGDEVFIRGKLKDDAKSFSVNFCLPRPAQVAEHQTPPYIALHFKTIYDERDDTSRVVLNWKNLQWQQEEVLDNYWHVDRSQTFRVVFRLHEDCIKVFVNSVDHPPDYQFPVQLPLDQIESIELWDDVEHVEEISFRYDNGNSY | -0.933 |
| Actd5 (Actinidia), P84527 (protein) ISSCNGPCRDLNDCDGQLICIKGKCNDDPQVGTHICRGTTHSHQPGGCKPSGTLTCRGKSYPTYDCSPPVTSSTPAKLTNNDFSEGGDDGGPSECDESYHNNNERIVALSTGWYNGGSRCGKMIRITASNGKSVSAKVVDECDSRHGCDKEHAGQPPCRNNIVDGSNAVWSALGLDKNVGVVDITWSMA | -0.173 |
| UDA (Urtica dioica), P11218 (protein) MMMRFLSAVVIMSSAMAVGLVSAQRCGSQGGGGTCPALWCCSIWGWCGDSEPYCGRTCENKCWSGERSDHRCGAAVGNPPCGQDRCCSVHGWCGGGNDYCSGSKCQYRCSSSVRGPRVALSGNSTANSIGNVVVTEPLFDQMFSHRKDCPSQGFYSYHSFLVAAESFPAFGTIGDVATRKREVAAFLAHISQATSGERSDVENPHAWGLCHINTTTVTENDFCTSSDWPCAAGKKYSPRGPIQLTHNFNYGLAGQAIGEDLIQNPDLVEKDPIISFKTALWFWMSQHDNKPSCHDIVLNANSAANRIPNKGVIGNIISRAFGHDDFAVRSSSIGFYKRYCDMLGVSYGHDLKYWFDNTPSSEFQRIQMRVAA | -0.169 |
